study-system: Tyrosine-protein phosphatase non-receptor type 6 (Homo sapiens)
Sequence (P29350 whole entry): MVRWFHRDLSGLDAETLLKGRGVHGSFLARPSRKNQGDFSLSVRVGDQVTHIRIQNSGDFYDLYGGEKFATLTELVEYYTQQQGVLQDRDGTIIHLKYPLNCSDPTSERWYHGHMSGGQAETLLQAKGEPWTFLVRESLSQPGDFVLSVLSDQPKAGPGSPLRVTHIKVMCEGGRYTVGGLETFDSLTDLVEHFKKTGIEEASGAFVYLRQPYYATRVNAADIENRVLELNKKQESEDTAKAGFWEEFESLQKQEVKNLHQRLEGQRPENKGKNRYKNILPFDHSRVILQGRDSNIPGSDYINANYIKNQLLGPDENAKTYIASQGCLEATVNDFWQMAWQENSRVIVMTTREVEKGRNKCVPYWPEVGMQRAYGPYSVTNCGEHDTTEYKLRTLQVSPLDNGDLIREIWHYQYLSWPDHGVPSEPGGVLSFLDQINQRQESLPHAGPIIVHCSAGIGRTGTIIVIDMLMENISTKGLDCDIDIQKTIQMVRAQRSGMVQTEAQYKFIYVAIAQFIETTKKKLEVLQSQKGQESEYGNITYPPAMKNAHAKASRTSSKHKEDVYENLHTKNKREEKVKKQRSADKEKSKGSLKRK
assay-metric: IC50 (µM)
Your answer should be a plain number; it is taken to be in µM.

Request: Check Tyrosine-protein phosphatase non-receptor type 6 (Homo sapiens) data and give IC50 for CCCCCCCCCCCCC/C=C/[C@@]12C(=O)O[C@@H](C)[C@@H]1[C@H](C(C)=O)C(C(=O)O)=C[C@H]2CCCCCCCCCCCC .
Result: 3.86

---

We begin with a simple list: items and their reported pIC50.
Target chain: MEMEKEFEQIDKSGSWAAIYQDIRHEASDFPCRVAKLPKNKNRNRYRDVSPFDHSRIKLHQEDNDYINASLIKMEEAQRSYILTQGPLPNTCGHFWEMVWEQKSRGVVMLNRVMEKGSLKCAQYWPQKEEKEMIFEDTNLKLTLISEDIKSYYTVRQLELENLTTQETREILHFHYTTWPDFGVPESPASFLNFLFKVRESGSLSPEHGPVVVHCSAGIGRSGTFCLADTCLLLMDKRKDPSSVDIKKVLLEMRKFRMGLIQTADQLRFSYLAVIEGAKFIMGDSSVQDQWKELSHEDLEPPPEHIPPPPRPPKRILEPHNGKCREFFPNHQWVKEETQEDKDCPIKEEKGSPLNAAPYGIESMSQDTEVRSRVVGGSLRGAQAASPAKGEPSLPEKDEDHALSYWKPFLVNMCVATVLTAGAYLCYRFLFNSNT
Note on pIC50: it is the negative log10 of concentration, concentration in mol/L.

Here are 2 molecules together with their reported answers.
| molecule | pIC50 |
| --- | --- |
| CCCCCCCCCCCC[C@@H]1C=C2C(=O)O[C@@]3(C)O[C@@]4(C)OC(=O)[C@]1(CO)[C@H]4[C@@H]23 | 4.69 |
| CCCCCCCCCCCCC/C=C/[C@@]12C(=O)O[C@@H](C)[C@@H]1[C@H](C(C)=O)C(C(=O)O)=C[C@H]2CCCCCCCCCCCC | 6.57 |

Request: In one line, give reported pIC50 of the entry CCCCCCCCCCCC/C=C/[C@]12C(=O)O[C@]3(C)O[C@]4(C)OC(=O)C(=C[C@H]1CCCCCCCCCCCC)[C@@H]4[C@@H]32 [Paracaseolide A (13)] .
Result: 5.82
